Assayed target: human NCX1 (Homo sapiens)
Construct: expressed in transfected cells
Experimental details: NCX1 inhibition, reverse mode (Ca2+ influx into cells), FLIPR Fluo-4 assay
Type: cell-based
Condition description: inhibition of NCX1 in reverse mode (Ca2+ influx into cells); read-out: NCX1rv IC50
Structures can show the parent of a compound that is named as a salt.
Metric name: IC50 (nM)

{"Molecule": "CC(C)[C@H](NC(=O)c1cnc(Oc2ccc3c(c2)CCC(c2cccnc2)O3)s1)C(=O)O (stereo partly shown)", "IC50 [nM]": 15600}
{"Molecule": "Nc1cc(C(=O)NCc2cnc(Oc3ccc4c(c3)CCC(c3ccccc3)O4)s2)ccn1 (stereo not shown)", "IC50 [nM]": 10900}
{"Molecule": "COC(=O)[C@@H]1CCCN1C(=O)c1cnc(Oc2ccc3c(c2)CC[C@@H](c2ccccc2)O3)s1", "IC50 [nM]": 500}
{"Molecule": "Cc1noc(C)c1CCCNC(=O)c1cnc(Oc2ccc3c(c2)CCC(c2ccccc2)O3)s1 (stereo not shown)", "IC50 [nM]": 300}
{"Molecule": "O=C(c1cnc(Oc2ccc3c(c2)CCC(c2ccccc2)O3)s1)N(CCO)CCO (stereo not shown)", "IC50 [nM]": 100}
{"Molecule": "Cc1ccccc1C1CCc2cc(Oc3ncc(CNC(=O)c4ccno4)s3)ccc2O1 (stereo not shown)", "IC50 [nM]": 600}

a: Cc1cc(C)nc(CNCc2cnc(Oc3ccc4c(c3)CCC(c3ccccc3)O4)s2)n1 (stereo not shown)
b: CC(C)CC(CNC(=O)c1cnc(Oc2ccc3c(c2)CC[C@@H](c2ccccc2)O3)s1)C(=O)O (stereo partly shown)
c: O=C(Cc1ccncc1)NCc1cnc(Oc2ccc3c(c2)CCC(c2cccc(F)c2)O3)s1 (stereo not shown) [compound 46, hydrochloride]
d: Cc1n[nH]c(C)c1C(C)NC(=O)c1cnc(Oc2ccc3c(c2)CCC(c2ccccc2)O3)s1 (stereo not shown)
Provide the items ranked by increasing IC50. Put the labels in the requested order and list them out.
c, b, a, d

I: COC(=O)C1(NC(=O)c2cnc(Oc3ccc4c(c3)CC[C@@H](c3ccccc3)O4)s2)CCCC1
II: Cc1cc(CNCc2cnc(Oc3ccc4c(c3)CCC(c3ccccc3)O4)s2)nn1C (stereo not shown)
Which one would you say has the larger IC50 value: I , or II ? The response must carry the label of the picked entry.
I

A: O=C(NC[C@H]1CCCC[C@H]1O)c1cnc(Oc2ccc3c(c2)CC[C@@H](c2ccccc2)O3)s1
B: COc1c(F)cccc1C1CCc2cc(Oc3ncc(C(=O)NCCO)s3)ccc2O1 (stereo not shown)
C: COc1cc(C(=O)NCc2cnc(Oc3ccc4c(c3)CCC(c3ccccc3)O4)s2)ccn1 (stereo not shown)
D: O=C(O)C[C@H](O)[C@H](CC1CCCCC1)NC(=O)c1cnc(Oc2ccc3c(c2)CC[C@@H](c2ccccc2)O3)s1
Provide the items ranked by increasing IC50. Put the labels in the requested order and list them out.
B, A, D, C
(B: 270 nM, A: 500 nM, D: 1100 nM, C: 5600 nM)

a: Cn1nccc1S(=O)(=O)NCc1cnc(Oc2ccc3c(c2)CCC(c2ccccc2)O3)s1 (stereo not shown)
b: C[C@H](O)[C@H](CO)NC(=O)c1cnc(Oc2ccc3c(c2)CC[C@@H](c2ccccc2)O3)s1
Which one would you say has the larger IC50 value: a , or b ? The response must carry the label of the picked entry.
a
(a: 300 nM, b: 200 nM)

1: CCCNCc1cnc(Oc2ccc3c(c2)CCC(c2ccccc2)O3)s1 (stereo not shown)
2: O=C(NCc1ccno1)c1cnc(Oc2ccc3c(c2)CCC(c2ccccc2)O3)s1 (stereo not shown)
3: CC1(C)C[C@@H](C(=O)O)N(C(=O)c2cnc(Oc3ccc4c(c3)CC[C@@H](c3ccccc3)O4)s2)C1
4: O=C(O)CNC(=O)c1cnc(Oc2ccc3c(c2)CC[C@@H](c2ccccc2)O3)s1
Provide the items ranked by increasing IC50. Put the labels in the requested order and list them out.
2, 1, 4, 3

I: Cc1ccccc1C1CCc2cc(Oc3ncc(C(=O)NCCN4CCNC4=O)s3)ccc2O1 (stereo not shown)
II: CC(C)CC(C)(NC(=O)c1cnc(Oc2ccc3c(c2)CC[C@@H](c2ccccc2)O3)s1)C(=O)O (stereo partly shown)
III: O=C(NCc1ccnc(Cl)c1)c1cnc(Oc2ccc3c(c2)CCC(c2ccc(Cl)nc2)O3)s1 (stereo not shown) [compound 278, hydrochloride]
IV: O=S(=O)(NCc1cnc(Oc2ccc3c(c2)CCC(c2ccccc2)O3)s1)c1cccnc1 (stereo not shown) [compound 47, hydrochloride]
Provide the items ranked by increasing IC50. Put the labels in the requested order and list them out.
IV, I, II, III
